measuredOn: Bombyx mori EcR (VP16 fusion, switch construct CVBE) with 6XEcRE LacZ reporter (Bombyx mori, UniProt P49881)
Construct: expressed in transfected cells; host or cells: Human 293 kidney (HEK-293) cells, retrovirally infected, clone Z3
assayText: Z3 assay: β-galactosidase (LacZ) reporter gene fold induction in stably transformed human 293 kidney cells (clone Z3)
Type: cell-based
conditionsUsed: read-out: Fold Induction Average, Z3 Assay (33 μM)
assayReadout: fold induction at 33 µM
Reply with the value as a number alone.

Before answering, review these 3 worked examples.
compound	assayReadout	recordedNumber
COc1cccc(C(=O)NC(C)(CC(C)C)C(=O)c2cc(C)cc(C)c2)c1C (stereo not drawn) [Example 55]	fold induction at 33 µM	309
COc1cccc(C(=O)NC2(C(=O)c3cccc(C)c3)CCCC2)c1C [Example 2]	fold induction at 33 µM	786
COc1cccc(C(=O)NC2(C(=O)c3cc(F)c(F)c(OC)c3)CCCC2)c1C [Example 67]	fold induction at 33 µM	666

For record CCC(CC)(NC(=O)c1cccc(OC)c1C)C(=O)c1cccc(OC)c1 [Example 49] the listed fold induction at 33 µM is 182

For record COc1ccc(C(=O)C2(NC(=O)c3cccc(OC)c3C)CCCCC2)c(OC)n1 [Example 64] the listed fold induction at 33 µM is 1160

For record COc1cccc(C(=O)C(C)(NC(=O)c2cccc(OC)c2C)C(C)C)c1 (stereo not drawn) [Example 32] the listed fold induction at 33 µM is 33

For record COc1cccc(C(=O)NC2(C(=O)c3ccc(F)c(C)c3)CCCC2)c1C [Example 17] the listed fold induction at 33 µM is 393

For record COc1cccc(C(=O)NC2(C(=O)c3cc(C)cc(C)c3)CCOCC2)c1C [Example 27] the listed fold induction at 33 µM is 562

For record COc1cccc(C(=O)NC2(C(=O)c3ccc(F)c(C)c3)CCCCC2)c1C [Example 18] the listed fold induction at 33 µM is 657

* * *

Measured fold induction at 33 µM, listed per entry for reference.
measuredOn: Bombyx mori EcR (VP16 fusion, switch construct CVBE) with 6XEcRE LacZ reporter (Bombyx mori)
Construct: expressed in transfected cells; host or cells: Human 293 kidney (HEK-293) cells, retrovirally infected, clone Z3
assayText: Z3 assay: β-galactosidase (LacZ) reporter gene fold induction in stably transformed human 293 kidney cells (clone Z3)
Type: cell-based
conditionsUsed: single dose 33 μM; ligand treated / DMSO treated cells; read-out: Fold Induction Average, Z3 Assay (33 μM)

Before answering, review these 2 worked examples.
COc1cccc(C(=O)NC2(C(=O)c3cc(C)cc(C)c3)CCSCC2)c1C 1220
COc1cccc(C(=O)NC2(C(=O)c3cc(C)cc(C)c3)CCCC2)c1C 464

Turning to the following compound.
For record CCC(CC)(NC(=O)c1cccc(OC)c1C)C(=O)c1cccc(C)c1 the listed fold induction at 33 µM is 356

* * *

measuredOn: Bombyx mori EcR (VP16 fusion, switch construct CVBE) with 6XEcRE LacZ reporter (Bombyx mori)
Construct: expressed in transfected cells; host or cells: Human 293 kidney (HEK-293) cells, retrovirally infected, clone Z3
Sequence (P49881 86-606 limits assumed): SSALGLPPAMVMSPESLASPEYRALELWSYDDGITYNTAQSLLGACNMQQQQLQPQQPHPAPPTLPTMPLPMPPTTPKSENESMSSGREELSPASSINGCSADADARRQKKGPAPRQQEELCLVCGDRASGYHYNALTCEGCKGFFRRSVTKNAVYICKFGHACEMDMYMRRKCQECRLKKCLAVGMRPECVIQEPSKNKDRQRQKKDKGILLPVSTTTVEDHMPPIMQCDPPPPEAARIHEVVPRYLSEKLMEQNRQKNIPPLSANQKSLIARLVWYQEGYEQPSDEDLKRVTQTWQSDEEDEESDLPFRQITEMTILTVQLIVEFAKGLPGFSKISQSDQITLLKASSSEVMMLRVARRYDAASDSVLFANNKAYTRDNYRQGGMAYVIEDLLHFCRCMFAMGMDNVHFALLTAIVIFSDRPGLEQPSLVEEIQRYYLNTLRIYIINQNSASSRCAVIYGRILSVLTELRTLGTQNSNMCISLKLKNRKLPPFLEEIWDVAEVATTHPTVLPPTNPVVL
Sequence (P19793 1-462 partner): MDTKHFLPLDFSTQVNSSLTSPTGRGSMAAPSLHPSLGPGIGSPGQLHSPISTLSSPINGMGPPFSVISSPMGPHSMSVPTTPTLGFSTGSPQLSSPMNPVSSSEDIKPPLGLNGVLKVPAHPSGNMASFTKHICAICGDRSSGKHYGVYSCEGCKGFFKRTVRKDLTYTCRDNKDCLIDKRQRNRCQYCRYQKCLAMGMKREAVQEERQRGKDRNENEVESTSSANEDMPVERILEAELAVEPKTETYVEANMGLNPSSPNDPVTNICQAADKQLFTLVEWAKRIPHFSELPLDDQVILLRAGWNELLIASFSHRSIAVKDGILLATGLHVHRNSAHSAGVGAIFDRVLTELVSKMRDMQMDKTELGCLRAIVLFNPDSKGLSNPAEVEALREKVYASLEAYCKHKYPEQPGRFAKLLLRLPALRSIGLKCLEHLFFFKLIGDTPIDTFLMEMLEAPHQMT
assayText: Z3 assay: β-galactosidase (LacZ) reporter gene fold induction in stably transformed human 293 kidney cells (clone Z3)
Format: cell-based
conditionsUsed: single dose 33 μM; ligand treated / DMSO treated cells
Measured Fold Induction Average, Z3 Assay (33 μM), listed per entry for reference.
Reply with the value as a number alone.

Before answering, review these 5 worked examples.
molecule	Fold Induction Average, Z3 Assay (33 μM)
Cc1ccc(C(=O)NC(C(=O)c2ccccc2)C(C)(C)C)cc1 (centres unmarked)	1
COc1ccccc1C(=O)C(C)(C)NC(=O)c1cccc(OC)c1C	18
COc1ccccc1C(=O)NC(C)(C)C(=O)c1cc(C)cc(C)c1	1
COc1cccc(C(=O)NC2(C(=O)c3cc(C)cc(C)c3)CCCN(S(C)(=O)=O)C2)c1C (racemic)	4
COc1cccc(C(=O)C(C)(Cc2ccccc2)NC(=O)c2cccc(OC)c2C)c1 (centres unmarked)	2

For record CCOC(=O)C(=O)N1CCC(NC(=O)c2cccc(OC)c2C)(C(=O)c2cc(C)cc(C)c2)CC1 the listed Fold Induction Average, Z3 Assay (33 μM) is 3
